# system_tested: Caspase-3 (Homo sapiens)
# Sequence (P42574 whole entry): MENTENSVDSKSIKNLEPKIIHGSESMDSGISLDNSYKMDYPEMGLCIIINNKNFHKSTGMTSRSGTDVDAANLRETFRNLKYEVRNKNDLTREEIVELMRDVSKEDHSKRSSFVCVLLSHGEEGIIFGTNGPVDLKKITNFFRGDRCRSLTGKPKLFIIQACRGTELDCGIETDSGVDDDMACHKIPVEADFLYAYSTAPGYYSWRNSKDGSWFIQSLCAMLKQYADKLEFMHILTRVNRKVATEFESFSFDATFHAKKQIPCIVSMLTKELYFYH
# assay_method_text: SAR Analysis of small molecule inhibitors of Sentrin-specific proteases (SENPs) using a Caspase-3 Selectivity assay. [Related pubchem assays (depositor defined):AID2540, AID2599, AID434973, AID489001]
# Type: functional
Calls of active or inactive are those of the source.
Give IC50 for every item shown.

-- ask # get_value(readout='IC50', item= Oc1ccccc1-c1nc(/C=C/c2ccccc2)no1 )
-- reply 6.9 µM (active)

-- ask Would you kindly repeat that for CSc1nc2ccc(NC(=O)c3cc4ccccc4o3)cc2s1 ?
-- reply 1.41 µM (active)

-- ask Cool, now O=C(NN=c1c(=O)c2ccccc2c1=O)c1ccccc1
-- reply 51.8 µM (active)

-- ask Fc1ccc(/C=C/c2noc(-c3ccccc3I)n2)cc1 ?
-- reply 24 µM (active)

---

# system_tested: Protein skinhead-1 (Caenorhabditis elegans)
# Assay type: functional
Activity calls are given as the source filed them.
Return exactly one item of 1 (active), -1 (inactive)

-- ask Recorded test outcome, item C#CCNC(=O)C1=C[C@@H](c2cn(C(C)=O)c3ccccc23)C[C@@H](OCCCCO)O1
-- reply -1

-- ask How about this compound: CC(=O)O[C@H]1[C@@H](O)[C@H](O)[C@H](Oc2c(O)c(C)c3c4c2[C@@H](C)CC[C@@H]4[C@@H](C)C[C@@H]3C=C(C)C)O[C@H]1C
-- reply -1

-- ask How about this compound: O=C(CNc1ccc(Br)cc1)c1ccccc1
-- reply -1

-- ask Also need CS(=O)(=O)N1N=C(c2cccs2)CC1c1ccccc1O (stereo not given) , thanks.
-- reply -1

-- ask One more compound: CC1=NN(c2ccccc2)C(=O)/C1=C\C=C1\N(C)c2ccccc2C1(C)C
-- reply 1

---

# system_tested: Protein skinhead-1 (Caenorhabditis elegans, UniProt P34707)
# Sequence (P34707 whole entry): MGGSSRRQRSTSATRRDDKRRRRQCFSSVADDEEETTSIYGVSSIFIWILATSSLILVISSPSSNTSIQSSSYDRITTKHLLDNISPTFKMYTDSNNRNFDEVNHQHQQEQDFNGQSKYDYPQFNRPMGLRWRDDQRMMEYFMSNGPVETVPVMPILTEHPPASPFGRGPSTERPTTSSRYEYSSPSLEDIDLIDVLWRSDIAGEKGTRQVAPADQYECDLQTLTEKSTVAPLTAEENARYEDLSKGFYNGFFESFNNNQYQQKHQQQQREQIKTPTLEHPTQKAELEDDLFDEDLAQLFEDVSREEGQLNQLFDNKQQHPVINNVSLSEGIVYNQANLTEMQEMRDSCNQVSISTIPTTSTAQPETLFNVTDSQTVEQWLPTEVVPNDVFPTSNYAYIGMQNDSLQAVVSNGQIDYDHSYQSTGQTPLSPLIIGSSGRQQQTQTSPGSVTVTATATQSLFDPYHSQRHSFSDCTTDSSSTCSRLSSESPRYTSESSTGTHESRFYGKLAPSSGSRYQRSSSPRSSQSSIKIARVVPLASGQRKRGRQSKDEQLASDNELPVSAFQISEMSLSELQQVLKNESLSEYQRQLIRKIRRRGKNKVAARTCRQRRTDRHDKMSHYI
# Type: functional
Active and inactive are the calls of the source.
// allowed return values: active, inactive

-- ask # fetch the recorded call for O=C(c1ccc(S(=O)(=O)NCc2ccco2)cc1)N1CCN(c2ccc(F)cc2)CC1 here
-- reply inactive

-- ask Moving on to C=CCNc1nc(-c2ccc([N+](=O)[O-])cc2)cs1
-- reply active

-- ask // query: O=c1cc(-c2ccc(F)cc2)oc2ccccc12
-- reply active

-- ask How about this compound: COc1ccc(S(=O)(=O)Nc2ccc(S(=O)(=O)Nc3ccc(F)cc3)cc2)cc1C
-- reply inactive

-- ask What do you have for O=C(Nc1ccc2oc(-c3cccnc3)nc2c1)c1ccc(Br)o1 ?
-- reply inactive

-- ask Try this compound too: CCOC(=O)c1cc2cc3ccccc3cc2[nH]1
-- reply inactive

---

# system_tested: Tumor necrosis factor (Homo sapiens)
# Sequence (P01375 whole entry): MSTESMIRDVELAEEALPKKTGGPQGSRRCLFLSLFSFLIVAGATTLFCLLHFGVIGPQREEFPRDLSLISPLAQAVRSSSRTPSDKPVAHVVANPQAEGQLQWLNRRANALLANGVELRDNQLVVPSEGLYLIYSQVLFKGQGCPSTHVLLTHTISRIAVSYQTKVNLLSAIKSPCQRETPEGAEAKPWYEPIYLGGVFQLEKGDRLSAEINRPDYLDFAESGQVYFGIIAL
# assay_method_text: analog potency on TNFa NF-kB signaling – cell-based, revised, SAR follow-up (AID 2337)
# Assay type: functional
Active and inactive are the calls of the source.
Your answer must be one of the following: TRUE for active, FALSE for inactive

-- ask What did this assay record as the result for O=C(Nc1sc2c(c1C(=O)O)CCCC2)C(=O)N1CCOCC1 ?
-- reply FALSE

-- ask Item: Cc1cccc(Nc2nc(N)nc(CCl)n2)c1C
-- reply TRUE

-- ask Next record, please: O=C(c1ccc(S(=O)(=O)c2ccccc2Cl)c([N+](=O)[O-])c1)N1CCN(Cc2ccccc2)CC1
-- reply TRUE

-- ask What would you report for Cc1cc(C(=O)COC(=O)c2ccccc2O)c(C)n1Cc1cccs1 ?
-- reply TRUE

-- ask Subsequent entry: COc1ccc(-c2cc(=O)oc3cc(OCC(=O)Nc4ccc(CCO)cc4)ccc23)cc1
-- reply FALSE
